melting point reference

Below, 5 compounds whose answers are already recorded.
Cl.O=C(COCCC(F)F)OC1CCNCC1
130 to 132 °C
Cl.O=C(OC1CCNCC1)C(OCCC(F)(F)F)(c1ccccc1)c1ccccc1
152 to 153 °C
Cl.O=C(OC1CCNCC1)C(OCC(F)(F)C(F)F)(c1ccccc1)c1ccccc1
128 to 130 °C
Cl.O=C(OC1CCNCC1)C(OCCCF)(c1ccccc1)c1ccccc1
135 to 136 °C
Cl.O=C(OC1CCNCC1)C(OCC(F)F)(c1ccccc1)c1ccccc1
172 to 174 °C

Could you now consider this next compound?
Answer with the recorded melting point for the compound listed here: Cl.O=C(OC1CCNCC1)C(OCC(F)(F)C(F)(F)F)(c1ccccc1)c1ccccc1
98 to 100 °C
